- STUDY SYSTEM: SCD5 (Homo sapiens)
- Construct: host or cells: S. cerevisiae ole1Δ strain (W303 pdr1Δ pdr3Δ background), plasmid pRS316 with TDH3 promoter and CYC1 terminator
- METHOD DESCRIPTION: Growth inhibition of humanized yeast strain expressing SCD5 as sole desaturase
- Format: cell-based
- MEASUREMENT CONDITIONS: humanized yeast strain, 40 h
Decide using IC50 alone. Strictly below 3 µM: criterion met. Equal to or above 3 µM: criterion not met.

Examples with answers:
>  <COMPOUND>
CC(C)(C)OC(=O)N1C[C@@H]2[C@H](C1)[C@H]2NC(=O)c1ccc2cnn(C3COC3)c2c1

>  <LABEL VALUE>
criterion not met

$$$$
>  <COMPOUND>
CC1(OC(=O)N2CCC(c3noc(-c4ccnc([C@H]5CCOC5)c4)n3)CC2)CC1

>  <LABEL VALUE>
criterion met

$$$$

Identify whether the compound `CC(C)n1ccc2ccc(-c3nc(C4CCN(C(=O)OC(C)(C)C)CC4)no3)cc21` records IC50 below 3 µM.
criterion met

###

- STUDY SYSTEM: SCD5 (Homo sapiens, UniProt Q86SK9)
- Construct: host or cells: S. cerevisiae ole1Δ strain (W303 pdr1Δ pdr3Δ background), plasmid pRS316 with TDH3 promoter and CYC1 terminator
- Sequence (Q86SK9 whole entry): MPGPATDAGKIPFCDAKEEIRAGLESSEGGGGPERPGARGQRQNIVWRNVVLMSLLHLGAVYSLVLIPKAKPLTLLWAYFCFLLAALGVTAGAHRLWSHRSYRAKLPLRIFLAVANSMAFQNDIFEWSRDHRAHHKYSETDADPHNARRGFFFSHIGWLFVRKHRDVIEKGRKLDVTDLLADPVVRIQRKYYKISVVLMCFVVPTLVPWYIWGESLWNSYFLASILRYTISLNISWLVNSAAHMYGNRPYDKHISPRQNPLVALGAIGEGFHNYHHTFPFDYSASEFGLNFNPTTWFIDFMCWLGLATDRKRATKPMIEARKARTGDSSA
- METHOD DESCRIPTION: Growth inhibition of humanized yeast strain expressing SCD5 as sole desaturase
- Type: cell-based
- MEASUREMENT CONDITIONS: yeast strain expressing human SCD5 as sole desaturase; Table 8
For each of the compounds below, state its IC50.

>  <COMPOUND>
CC1(OC(=O)N2CCC(c3noc(-c4cncc(C5CCOC5)c4)n3)CC2)CC1 (stereo not shown)

>  <IC50>
320 nM

$$$$
>  <COMPOUND>
CC(C)(C)OC(=O)N1CCC(c2noc(-c3ccc(OC4COC4)nc3)n2)CC1

>  <IC50>
4910 nM

$$$$
>  <COMPOUND>
CCC(=O)N1CCC(c2noc(-c3cc(N4CCC(F)(F)C4)c(F)cn3)n2)CC1

>  <IC50>
7740 nM

$$$$

Quick one: IC50 of `O=C(C1CCC1)N1CCC(c2noc(-c3ccc(F)c(N4CCOCC4)c3)n2)CC1` ?
40 nM

###

- STUDY SYSTEM: SCD5 (Homo sapiens, UniProt Q86SK9)
- Construct: host or cells: S. cerevisiae ole1Δ strain (W303 pdr1Δ pdr3Δ background), plasmid pRS316 with TDH3 promoter and CYC1 terminator
- METHOD DESCRIPTION: Growth inhibition of humanized yeast strain expressing SCD5 as sole desaturase
- Format: cell-based
- MEASUREMENT CONDITIONS: yeast strain expressing human SCD5 as sole desaturase; Table 8
pIC50: −log10 of the molar value.
Threshold check on pIC50: at or above 6 gives yes, strictly below gives no.

Examples with answers:
>  <MOLECULE>
O=C(N1CCC(c2noc(-c3cc(C4CCOC4)ncc3F)n2)CC1)C1(F)CCC1 (stereo not drawn)

>  <LABEL VALUE>
yes

$$$$
>  <MOLECULE>
COC(=O)N1CCN(c2cc(-c3ccc4cnn(C5COC5)c4n3)on2)CC1

>  <LABEL VALUE>
no

$$$$
>  <MOLECULE>
CCC(=O)N1CCC(c2noc(-c3ccnc(N4CCC(F)(F)C4)c3)n2)CC1

>  <LABEL VALUE>
no

$$$$
>  <MOLECULE>
CCC(=O)N1CCC(c2noc(-c3cc(N4CCOCC4)ccn3)n2)CC1

>  <LABEL VALUE>
yes

$$$$
>  <MOLECULE>
CC(C)(C)OC(=O)N1CCC(c2noc(-c3ccnc(-c4cocn4)c3)n2)CC1

>  <LABEL VALUE>
yes

$$$$

Let's switch to this molecule now.
Would you say `O=C(C1CCC1)N1CCC(c2noc(-c3ccnc(N4CCC(F)(F)C4)c3)n2)CC1` shows pIC50 at minimum 6?
yes
